The entries below come with measured IC50 values attached.
Target: Ros1 (Homo sapiens, UniProt P08922)
Construct: purchased Reaction Biology Corp
Sequence (P08922 28-2347): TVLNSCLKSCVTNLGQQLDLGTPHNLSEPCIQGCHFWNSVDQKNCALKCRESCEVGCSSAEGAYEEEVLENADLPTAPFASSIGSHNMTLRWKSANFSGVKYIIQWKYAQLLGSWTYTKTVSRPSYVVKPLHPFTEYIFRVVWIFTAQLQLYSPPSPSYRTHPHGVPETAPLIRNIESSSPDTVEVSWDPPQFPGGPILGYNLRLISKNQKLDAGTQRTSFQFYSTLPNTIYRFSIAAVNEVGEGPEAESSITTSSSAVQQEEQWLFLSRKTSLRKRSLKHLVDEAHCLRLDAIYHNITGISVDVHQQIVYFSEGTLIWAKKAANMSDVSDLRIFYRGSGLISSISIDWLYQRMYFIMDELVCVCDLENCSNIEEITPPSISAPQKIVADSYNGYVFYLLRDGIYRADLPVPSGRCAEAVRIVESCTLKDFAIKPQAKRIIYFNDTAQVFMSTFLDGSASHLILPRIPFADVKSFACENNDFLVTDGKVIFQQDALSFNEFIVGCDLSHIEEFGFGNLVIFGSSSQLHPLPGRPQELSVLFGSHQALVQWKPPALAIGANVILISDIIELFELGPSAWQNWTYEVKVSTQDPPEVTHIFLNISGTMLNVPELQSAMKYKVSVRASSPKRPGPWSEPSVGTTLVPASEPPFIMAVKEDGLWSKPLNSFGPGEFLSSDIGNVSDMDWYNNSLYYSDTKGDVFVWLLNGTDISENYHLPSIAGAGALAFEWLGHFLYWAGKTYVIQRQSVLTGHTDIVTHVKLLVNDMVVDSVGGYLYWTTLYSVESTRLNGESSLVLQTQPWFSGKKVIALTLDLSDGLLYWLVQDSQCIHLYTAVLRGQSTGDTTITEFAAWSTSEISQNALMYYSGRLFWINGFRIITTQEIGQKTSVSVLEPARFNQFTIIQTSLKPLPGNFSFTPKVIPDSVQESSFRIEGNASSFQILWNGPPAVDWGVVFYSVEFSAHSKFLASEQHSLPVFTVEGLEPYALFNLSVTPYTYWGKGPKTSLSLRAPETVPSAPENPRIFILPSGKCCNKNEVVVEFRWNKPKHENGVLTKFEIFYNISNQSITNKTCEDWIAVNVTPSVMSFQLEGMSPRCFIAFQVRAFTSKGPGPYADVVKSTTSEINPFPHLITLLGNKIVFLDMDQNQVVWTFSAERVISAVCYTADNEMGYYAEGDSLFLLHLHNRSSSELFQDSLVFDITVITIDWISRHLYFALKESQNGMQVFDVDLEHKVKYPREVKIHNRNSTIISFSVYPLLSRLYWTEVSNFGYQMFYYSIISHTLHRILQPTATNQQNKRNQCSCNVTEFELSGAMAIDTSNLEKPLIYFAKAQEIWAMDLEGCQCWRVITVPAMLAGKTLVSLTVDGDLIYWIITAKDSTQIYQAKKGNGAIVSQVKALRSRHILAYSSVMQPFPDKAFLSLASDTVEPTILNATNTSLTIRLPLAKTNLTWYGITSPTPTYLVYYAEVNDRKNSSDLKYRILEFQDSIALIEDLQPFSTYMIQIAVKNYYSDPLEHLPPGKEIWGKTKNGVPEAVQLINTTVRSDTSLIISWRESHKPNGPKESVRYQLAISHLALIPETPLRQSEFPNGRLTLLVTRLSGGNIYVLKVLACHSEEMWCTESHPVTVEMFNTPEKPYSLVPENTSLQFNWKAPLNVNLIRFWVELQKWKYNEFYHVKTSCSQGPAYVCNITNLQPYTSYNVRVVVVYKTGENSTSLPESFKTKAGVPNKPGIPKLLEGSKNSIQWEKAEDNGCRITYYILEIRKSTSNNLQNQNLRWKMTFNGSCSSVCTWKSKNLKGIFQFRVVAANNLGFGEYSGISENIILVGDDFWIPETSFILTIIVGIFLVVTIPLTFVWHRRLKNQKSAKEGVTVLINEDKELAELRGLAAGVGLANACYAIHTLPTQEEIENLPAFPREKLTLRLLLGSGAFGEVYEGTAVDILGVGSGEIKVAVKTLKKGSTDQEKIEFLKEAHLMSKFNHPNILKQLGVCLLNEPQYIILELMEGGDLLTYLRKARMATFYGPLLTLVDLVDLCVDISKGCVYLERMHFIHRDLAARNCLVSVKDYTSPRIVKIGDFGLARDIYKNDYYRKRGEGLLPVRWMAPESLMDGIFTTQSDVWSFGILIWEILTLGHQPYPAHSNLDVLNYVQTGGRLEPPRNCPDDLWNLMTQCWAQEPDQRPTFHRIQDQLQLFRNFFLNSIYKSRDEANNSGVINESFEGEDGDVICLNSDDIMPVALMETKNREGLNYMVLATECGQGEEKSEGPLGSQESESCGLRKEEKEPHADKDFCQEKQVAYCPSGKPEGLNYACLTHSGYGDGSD
Test: Kinase inhibitory activity (33P-ATP, filtration-binding method, Reaction Biology Corp.)
Type: biochemical
Details: read-out: Half maximal inhibitory concentration IC50 for kinases, Ros1
Hi! Could you send only the number? It should be in nM, unit omitted.

Below are worked cases with known answers.
compound=C[C@@H]1COC[C@@H]2c3cc(F)cnc3OCC3(CC3)NC(=O)c3cnn4ccc(nc34)N12 measurename=IC50 unitname=nM val=2.2
compound="C[C@H]1CNC(=O)c2cnn3ccc(nc23)N2CCOC[C@@H]2c2cc(F)cnc2O1 [WX004B]" measurename=IC50 unitname=nM val=8.1

Please give the documented IC50 of O=C1NC2(CC2)COc2ncc(F)cc2[C@H]2CCOCCN2c2ccn3ncc1c3n2 [WX009A] 0.1

Just for reference, patent US20210403485A1 is where these values come from.
